Where do these numbers come from? They come from patent US11999727B2.

Known IC50 of a selection of compounds
Molecular target: PRMT5 (Homo sapiens, UniProt O14744)
Construct: purchased Viva (custom protein)
Sequence (O14744 whole entry): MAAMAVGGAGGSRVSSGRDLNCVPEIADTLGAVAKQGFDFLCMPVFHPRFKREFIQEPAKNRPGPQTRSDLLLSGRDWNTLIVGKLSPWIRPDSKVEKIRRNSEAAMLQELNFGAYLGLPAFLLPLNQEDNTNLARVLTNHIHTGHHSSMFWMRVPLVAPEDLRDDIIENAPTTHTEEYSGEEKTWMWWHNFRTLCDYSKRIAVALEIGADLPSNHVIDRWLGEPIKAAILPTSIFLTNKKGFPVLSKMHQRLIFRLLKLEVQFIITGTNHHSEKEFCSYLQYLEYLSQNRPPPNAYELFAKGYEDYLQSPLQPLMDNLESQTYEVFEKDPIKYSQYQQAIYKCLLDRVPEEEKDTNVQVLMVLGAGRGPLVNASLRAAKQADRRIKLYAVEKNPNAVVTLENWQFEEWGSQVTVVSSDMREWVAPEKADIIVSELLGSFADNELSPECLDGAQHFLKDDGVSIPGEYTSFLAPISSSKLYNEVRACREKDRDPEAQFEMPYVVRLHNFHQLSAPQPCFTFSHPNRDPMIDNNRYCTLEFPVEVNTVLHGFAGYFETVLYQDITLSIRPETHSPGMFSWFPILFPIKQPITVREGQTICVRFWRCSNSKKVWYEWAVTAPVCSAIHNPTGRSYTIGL
Sequence (Q9BQA1 whole entry partner): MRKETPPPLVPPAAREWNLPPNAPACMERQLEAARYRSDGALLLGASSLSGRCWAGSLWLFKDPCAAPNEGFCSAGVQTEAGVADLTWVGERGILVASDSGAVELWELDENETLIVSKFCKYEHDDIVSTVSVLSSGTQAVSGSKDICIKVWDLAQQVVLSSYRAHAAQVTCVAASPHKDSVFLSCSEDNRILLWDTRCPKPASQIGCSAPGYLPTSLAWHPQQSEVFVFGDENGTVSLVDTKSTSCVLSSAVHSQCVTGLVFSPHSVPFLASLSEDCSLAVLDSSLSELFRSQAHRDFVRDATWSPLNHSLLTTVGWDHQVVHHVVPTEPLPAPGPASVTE
Test: PRMT5 biochemical IC50 assay with no cofactor
Details: PRMT5, no cofactor; read-out: No Cofactor/ rel IC50

Reported IC50, compound O=C(Nc1cncc(CO)c1)C(=O)N1CCCCC1c1ccccc1 (stereo not drawn) : ____ > 0.5 µM

Reported IC50, compound Cc1ccc([C@@H]2CC[C@@H](C)CN2C(=O)C(=O)Nc2cncc(C(N)=O)c2)cc1F (racemic) : ____ 0.05 to 0.5 µM

Reported IC50, compound Cc1cc(NC(=O)C(=O)N2C[C@@H](C)CC[C@@H]2c2cccc(C3CCN(C)CC3)c2)cnc1N (single isomer, unassigned) : ____ < 0.05 µM

Reported IC50, compound Cc1cncc(NC(=O)C(=O)N2C[C@@H](C)CC[C@@H]2c2cccs2)c1 (single isomer, unassigned) [Compound 76] : ____ > 0.5 µM

Reported IC50, compound C[C@@H]1CC[C@@H](c2cccnc2)N(C(=O)C(=O)Nc2cncc(C(N)=O)c2)C1 (racemic) [Compound 102] : ____ 0.05 to 0.5 µM

Reported IC50, compound CCc1cc(NC(=O)C(=O)N2C[C@@H](C)CC[C@@H]2c2ccc3cn(C4CC(C)(C)N(C)C(C)(C)C4)nc3c2)cnc1N (racemic) : ____ < 0.05 µM
